Biological target: K-Ras G12D (Homo sapiens, UniProt P01116, G12D)
Construct: expressed in transfected cells; host or cells: 293H cells
Sequence (P01116 whole entry G12D): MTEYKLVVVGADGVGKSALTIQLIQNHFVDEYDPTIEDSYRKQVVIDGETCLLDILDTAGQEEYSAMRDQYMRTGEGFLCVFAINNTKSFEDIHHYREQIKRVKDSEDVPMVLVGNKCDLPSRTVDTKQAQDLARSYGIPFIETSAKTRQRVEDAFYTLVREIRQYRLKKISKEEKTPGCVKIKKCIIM
Assay: G-LISA Ras activation, 293H cells transfected with G12D mutant
Type: cell-based
Conditions: compound 1 hour
Protocol: 293H cells were seeded in 6-wells at 0.6×10^6 cells per well and transfected next day with 5 μg of Ras wild-type, or G12C, G12D or G12V mutant DNA plasmid vector using transfection reagent Lipofectamine 3000. Next day cells were treated with 3.125-25 μM of Ras compounds for 1 hour. Wild-type transfected cells were subsequently treated with 100 ng/ml EGF for 2 minutes. […]
Here the recorded IC50 is given for each entry.
All answers are understood in µM, so give the number only.

Worked examples follow.
{"columns": ["Compound", "IC50 [µM]"],
 "data": [
  ["COC(=O)CCCN1C(=O)CCc2cc(-c3csc(NC(=O)c4oc(C)nc4C)n3)ccc21", 5.5],
  ["Cc1nc(C)c(C(=O)Nc2nc(-c3ccc4c(c3)CCC(=O)N4)cs2)o1", 10.9],
  ["Cc1nc(C)c(C(=O)Nc2nc(-c3ccc4c(c3)CCC(=O)N4Cc3cccnc3)cs2)o1", 8.3]
]}

Prompt: Give the measured IC50 of Cn1nccc1-c1csc(C(=O)Nc2nc(-c3ccc4c(c3)CCC(=O)N4)cs2)c1 .
Completion: 23.5

Prompt: Give the measured IC50 of Cc1nc(C)c(C(=O)Nc2nc(-c3ccc4c(c3)CCC(=O)N4CC3CCOC3)cs2)o1 (stereo not shown) .
Completion: 8

Prompt: Give the measured IC50 of Cc1nc(C)c(C(=O)Nc2nc(-c3ccc4c(c3)CCC(=O)N4CC3CCCN(C(=O)OC(C)(C)C)C3)cs2)o1 (stereo not shown) .
Completion: 6.1

Prompt: Give the measured IC50 of CCc1nc(C)c(C(=O)Nc2nc(-c3ccc4c(c3)CCC(=O)N4C(C)c3cccnc3)cs2)o1 (stereo not shown) .
Completion: 8.2

Prompt: Give the measured IC50 of Cc1nn(C)cc1C(=O)Nc1nc(-c2ccc3c(c2)CCC(=O)N3Cc2cccnc2)cs1 .
Completion: 10

Prompt: Give the measured IC50 of Cc1nc(C(C)C)sc1C(=O)Nc1nc(-c2ccc3c(c2)CCC(=O)N3Cc2cccnc2)cs1 .
Completion: 6.6

Prompt: Give the measured IC50 of Cn1nccc1C(=O)Nc1nc(-c2ccc3c(c2)CCC(=O)N3)cs1 .
Completion: 21.5

---

System: Panc10.05-G12D
Assay: Viability assay (CellTiterBlue, 72 hr) Panc10.05
Assay type: cell-based
Conditions: Homo sapiens, Panc1005, GI50, CellTiterBlue, Panc10.05 K-Ras G12D, read-out: 72 hr Cell Viability Panc10.05 (G12D)
Here the recorded IC50 is given for each entry.
All answers are understood in µM, so give the number only.

Worked examples follow.
{"columns": ["Compound", "IC50 [µM]"],
 "data": [
  ["Cc1nn(C(C)C)cc1C(=O)Nc1nc(-c2ccc3c(c2)CCC(=O)N3)cs1", 3],
  ["CCc1nc(C)c(C(=O)Nc2nc(-c3ccc4c(c3)CCC(=O)N4Cc3cncnc3)cs2)o1", 17]
]}

The record that follows has no IC50 shown yet.
Prompt: Give the measured IC50 of Cc1nc(C)c(C(=O)Nc2nc(-c3ccc4c(c3)CCC(=O)N4CC(O)CO)cs2)o1 (stereo not drawn) .
Completion: 12

---

Biological target: K-Ras G12V (Homo sapiens, UniProt P01116, G12V)
Construct: expressed in transfected cells; host or cells: 293H cells
Sequence (P01116 whole entry G12V): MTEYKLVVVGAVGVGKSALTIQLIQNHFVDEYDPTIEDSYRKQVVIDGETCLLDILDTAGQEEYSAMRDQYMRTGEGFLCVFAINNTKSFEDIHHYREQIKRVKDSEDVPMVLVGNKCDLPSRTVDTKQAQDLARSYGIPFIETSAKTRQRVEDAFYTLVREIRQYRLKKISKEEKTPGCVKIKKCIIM
Assay: G-LISA Ras activation, 293H cells transfected with G12V mutant
Format: cell-based
Details: compound 1 hour
Procedure: 293H cells were seeded in 6-wells at 0.6×10^6 cells per well and transfected next day with 5 μg of Ras wild-type, or G12C, G12D or G12V mutant DNA plasmid vector using transfection reagent Lipofectamine 3000. Next day cells were treated with 3.125-25 μM of Ras compounds for 1 hour. Wild-type transfected cells were subsequently treated with 100 ng/ml EGF for 2 minutes. […]
Here the recorded IC50 is given for each entry.

{"columns": ["Compound", "IC50"],
 "data": [
  ["Cc1nc(C2CCC2)oc1C(=O)Nc1nc(-c2ccc3c(c2)CCC(=O)N3)cs1", "> 25 µM"]
]}

Prompt: Give the measured IC50 of Cc1nc(C2CC2)oc1C(=O)Nc1nc(-c2ccc3c(c2)CCC(=O)N3)cs1 .
Completion: 19.4 µM

Prompt: Give the measured IC50 of Cc1nc(C2CC2)oc1C(=O)Nc1nc(-c2ccc3c(c2)CCC(=O)N3Cc2ccccc2)cs1 .
Completion: 21.6 µM

Prompt: Give the measured IC50 of CCc1nc(C)c(C(=O)Nc2nc(-c3ccc4c(c3)CCC(=O)N4Cc3cccnc3)cs2)o1 .
Completion: 9.6 µM

Prompt: Give the measured IC50 of CCc1nc(C)c(C(=O)Nc2nc(-c3ccc4c(c3)CCC(=O)N4Cc3ccccn3)cs2)o1 .
Completion: 9.8 µM

Prompt: Give the measured IC50 of Cc1nc(C(C)C)oc1C(=O)Nc1nc(-c2ccc3c(c2)CCC(=O)N3)cs1 .
Completion: > 25 µM

Prompt: Give the measured IC50 of Cc1nc(C)c(C(=O)Nc2nc(-c3ccc4c(c3)CCC(=O)N4CC3CCCOC3)cs2)o1 (stereo not shown) .
Completion: 6.5 µM

---

Test system: Ishikawa (K-Ras wild type cell line)
Assay: Viability assay (CellTiterBlue, 72 hr) Ishikawa
Assay type: cell-based
Settings: Homo sapiens, GI50, CellTiterBlue, Ishikawa K-Ras wild-type
Measured Metric: pIC50
// field semantics: pIC50 = negative decimal log of concentration (mol/L)

{"columns": ["Chemical String", "Recorded Measurement"],
 "data": [
  ["Cc1nc(C)c(C(=O)Nc2nc(-c3ccc4c(c3)CCC(=O)N4CC3CC3)cs2)o1", 5.52],
  ["Cn1cc(C(=O)Nc2nc(-c3ccc4c(c3)CCC(=O)N4)cs2)c(C(C)(C)C)n1", 5.15]
]}

Prompt: Give the measured pIC50 of CCc1nc(C)c(C(=O)Nc2nc(-c3ccc4c(c3)CCC(=O)N4Cc3ccccc3)cs2)o1 .
Completion: 5.40

Prompt: Give the measured pIC50 of Cc1nc(C2CCCCC2)oc1C(=O)Nc1nc(-c2ccc3c(c2)CCC(=O)N3Cc2cccnc2)cs1 .
Completion: 5.70

---

Tested on: phospho-ERK in Panc1 (G12D)
Test: In-Cell Western phospho-ERK, Panc1
Type: cell-based
Settings: Homo sapiens, PANC-1, 1 h; Panc1, one hour treatment; read-out: In-Cell Western Panc1 (G12D) Erk (P)
Experimental: In-cell phosphorylation assays for Erk and Akt were performed on several of the compounds and exemplary results are shown in Table 3 below using HCC827 and A375 cell lines for wild type K-Ras and Panc1 and Panc10.05 cell lines for G12D K-Ras mutants. […] Cells are seeded in complete medium into black sided, clear-bottom 384-well microplates at 3000 cells/27 ul/well. […] Plates are imaged on the Celigo (Nexcelom) and cellular fluorescence is quantitated. […] EC50 values are calculated using Graphpad Prism.
Here the recorded EC50 is given for each entry.
All answers are understood in µM, so give the number only.

{"columns": ["Molecule", "EC50 / µM"],
 "data": [
  ["CCc1nc(C)c(C(=O)Nc2nc(-c3ccc4c(c3)CCC(=O)N4Cc3ccccc3)cs2)o1 [Compound 59]", 3]
]}

Prompt: Give the measured EC50 of Cc1nc(C2CCCCC2)oc1C(=O)Nc1nc(-c2ccc3c(c2)CCC(=O)N3Cc2cccnc2)cs1 [Compound 101] .
Completion: 18

---

Biological target: wild type K-Ras (Homo sapiens)
Construct: expressed in transfected cells; host or cells: 293H cells
Sequence (P01116 whole entry): as the sequence (P01116 whole entry G12V) above, with V12G counted along it
Experiment: G-LISA Ras activation, 293H cells transfected with Ras wild-type, EGF stimulated
Format: cell-based
Details: compound 1 hour, then 100 ng/ml EGF 2 minutes
Here the recorded IC50 is given for each entry.
All answers are understood in µM, so give the number only.

Worked examples follow.
{"columns": ["Chemical String", "IC50 / µM"],
 "data": [
  ["CCn1nc(C)c(C(=O)Nc2nc(-c3ccc4c(c3)CCC(=O)N4Cc3cccnc3)cs2)c1C", 6],
  ["Cc1cc(C(=O)Nc2nc(-c3ccc4c(c3)CCC(=O)N4)cs2)n(C)n1", 12.6],
  ["Cc1nn(-c2ccc(F)cc2)c(C)c1C(=O)Nc1nc(-c2ccc3c(c2)CCC(=O)N3)cs1", 10.6],
  ["COCCCN1C(=O)CCc2cc(-c3csc(NC(=O)c4oc(C)nc4C)n3)ccc21", 12.1],
  ["Cc1nc(C)c(C(=O)Nc2nc(-c3ccc4c(c3)CCC(=O)N4CC3CC3)cs2)o1", 16.7]
]}

The record that follows has no IC50 shown yet.
Prompt: Give the measured IC50 of Cc1nc(C(C)C)oc1C(=O)Nc1nc(-c2ccc3c(c2)CCC(=O)N3Cc2cccnc2)cs1 .
Completion: 11.7
